Can you tell me inhibition for the items I'm about to list?
Test: growth suppression of yeast trafficking mutant, preliminary HTS, modulators of trafficking downstream of Golgi apparatus project, 1536-format plate, OD 615 nm (AID 637)
Conditions: yeast transport mutant growth, absorbance 615 nm, 18 h; stronger effect = higher value
Numbers only, in %.

1) COc1ccc(OC)c(S(=O)(=O)N2c3ccccc3CC2C)c1 (stereo not drawn): -3.93
2) N#CC(C(=O)c1ccco1)c1ccccn1 (stereo not drawn): 0.67

Provide reported inhibition for each item, in the same order as listed.
1. CCSc1nnc(-c2cccs2)o1
2. Cc1ncc(CSc2nc3ccccc3[nH]2)c(N)n1
3. O=C(NCc1cccs1)c1cc2c(s1)-c1ccccc1OC2
4. COc1cc(OC)cc(C(=O)NCc2n[nH]c(=S)n2-c2ccccc2OC)c1

1: -2.83; 2: 1.43; 3: 3.77; 4: -1.33

Hey, quick one: what's inhibition for each of these?
1. O=c1[nH]cnc2c1C1(CCCC1)Cc1ccccc1-2
2. CC1CCN(S(=O)(=O)c2ccc3[nH]c(=O)cc(C(=O)O)c3c2)CC1
3. Cc1ccccc1-n1nnnc1SCC(=O)Nc1ccc(S(=O)(=O)N2CCCC2)cc1
4. CCN(CC)S(=O)(=O)c1ccc(C(=O)Oc2ccc3c(c2)OCO3)cc1
5. CC1CN(S(=O)(=O)c2cccc(C(=O)OCc3cc(=O)oc4cc(O)ccc34)c2)CC(C)O1 (stereo not drawn)
6. CCCCC(c1nnnn1CS(=O)(=O)c1ccc(C)cc1)N1CCN(c2ccccc2)CC1 (stereo not drawn)

-0.5
-4.1
2.1
-4.13
-4.43
-1.27

Fill in inhibition for each of the 7 compounds listed.
1. Cc1ccc(NC(=O)CN2CC(C)SC2=NC2CCCCC2)cc1 (stereo not drawn)
2. Cc1nc(-c2cccc(N)c2)cs1
3. O=C(Nc1cccnc1)c1ccc2c(c1)C(=O)N(Cc1cccnc1)C2=O
4. CCOC(=O)c1c(NC(=O)c2cccs2)sc2c1CCN(C(=O)OCC)C2
5. COc1ccccc1N1CCN(C(=O)C2CCCO2)CC1 (stereo not drawn)
6. CCOC(=O)Cc1csc(NC(=O)CN(C)S(=O)(=O)c2ccc3c(c2)CCC(=O)N3)n1
7. CC(C)(C)n1nnnc1CN1CCC(NC(=O)NC2CCCCC2)CC1

1: 1.94; 2: -2.3; 3: -1.64; 4: -1.8; 5: 1.8; 6: 0.82; 7: -2.5

# map each compound to its inhibition
1. O=C(O)CCN1C(=O)c2ccccc2C1=O
2. Cc1cc(C(=O)NCCCN2CCN(C3CCCCC3)CC2)n(-c2ccccc2)n1
3. Cc1ccccc1OCCN1C(=O)NC2(CCc3ccccc32)C1=O (stereo not drawn)
4. COc1ccc(CCn2c(-c3ccco3)nc3nc4ccccc4nc32)cc1

1: 2.79; 2: -8.33; 3: 0; 4: 1.31

###

Field: viability. Provide a value for each of the compounds that follow.
Experiment: reversal of MRP1-mediated doxorubicin resistance, pilot screen, H69AR cells, doxorubicin co-treatment (AID 601)
Conditions: H69AR cells + 2 uM doxorubicin, CellTiter-Glo, 72 h; measured here: viability with 2 uM doxorubicin; at 10 µM; stronger effect = lower value

I have 4 compounds here; please give me viability for each one.
1. Cc1cc2ncn(C(=O)c3c(-c4ccccc4)noc3C)c2cc1C
2. Nc1c(S(=O)(=O)c2cccs2)c2nc3ccccc3nc2n1CC1CCCO1 (stereo not given)
3. CCOC(=O)N1CCC2(O)CCCCC2C1c1ccc(F)cc1 (stereo not given)
4. Cc1cc(NC(=O)Cn2cnc3c2c(=O)n(C)c(=O)n3C)n(-c2ccccc2)n1

77.7%
81%
88.5%
99.3%

Reported viability for CCCCC(=O)NCCNc1nc2c(c(=O)n(C)c(=O)n2C)n1Cc1ccccc1 was 98.7%
